# measured.on: T1, human KLRB1 protein extracellular domain (ECD) (human, UniProt Q12918 67-225)
# T1 construct: range 67-225; The ELISA and SPR text says only 'human KLRB1 ECD'; also called human KLRB1 ECD; CD161
# T1 sequence (looked up): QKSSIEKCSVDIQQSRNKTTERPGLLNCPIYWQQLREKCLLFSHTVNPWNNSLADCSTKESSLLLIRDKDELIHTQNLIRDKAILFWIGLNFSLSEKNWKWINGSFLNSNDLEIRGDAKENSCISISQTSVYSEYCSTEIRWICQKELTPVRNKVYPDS
# assay.notes: SPR, human KLRB1 ECD; format not stated
# kon annotations
Please state the figure in M⁻¹ s⁻¹; there is no need to write the unit.

Recorded kon, per entry:
10A3D6C109Chum1.4 (antibody, V domains shown, Humanized variant of 10A3D6 made by CDR grafting) VH: QVQLVQSGAEVKKPGASVKVSCKASGYSFTGYTMNWVRQAPGQGLEWMGLINPNTGGTYYNQKFKDRVTMTRDTSISTAYMELSRLRSDDTAVYYCARLGDNYRGYFDCWGQGTTVTVSS VL: DIQLTQSPSFLSASVGDRVTITCKASQDVGTAVVWYQQTPGKAPKLLIDWASIRHTGVPDRFSGSGSGTEFTLTISSLQPEDFADYFCQQYSTYLYTFGGGTKLEIK
1.2e+06
10A3D6C109Chum4.3 (antibody, V domains shown, Humanized variant of 10A3D6 made by CDR grafting) VH: QVQLVQSGAEVKKPGASVKVSCKASGYSFTGYTMNWVRQAHGQNLEWIGLINPNTGGTYYNQKFKDRATLTVDTSISTAYMELSRLRSDDTAVYYCARLGDNYRGYFDCWGQGTTVTVSS VL: DIQLTQSPSFLSASVGDRVTITCKASQDVGTAVVWYQQTPGKAPKLLIDWASIRHTGVPSRFSGSGSGTEFTLTISSLQPEDFADYFCQQYSTYLYTFGGGTKLEIK
851000
10A3D6C109Chum2.5 (antibody, V domains shown, Humanized variant of 10A3D6 made by CDR grafting) VH: QVQLVQSGAEVKKPGASVKVSCKASGYSFTGYTMNWVRQAPGQNLEWIGLINPNTGGTYYNQKFKDRVTLTVDTSISTAYMELSRLRSDDTAVYYCARLGDNYRGYFDCWGQGTTVTVSS VL: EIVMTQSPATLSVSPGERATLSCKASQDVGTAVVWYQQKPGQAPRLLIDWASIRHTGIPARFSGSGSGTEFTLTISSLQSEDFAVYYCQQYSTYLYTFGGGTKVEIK
861000
10A3D6C109Chum2.4 (antibody, V domains shown, Humanized variant of 10A3D6 made by CDR grafting) VH: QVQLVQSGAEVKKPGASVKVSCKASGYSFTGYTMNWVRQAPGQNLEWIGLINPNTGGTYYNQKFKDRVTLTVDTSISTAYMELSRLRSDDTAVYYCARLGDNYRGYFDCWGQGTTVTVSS VL: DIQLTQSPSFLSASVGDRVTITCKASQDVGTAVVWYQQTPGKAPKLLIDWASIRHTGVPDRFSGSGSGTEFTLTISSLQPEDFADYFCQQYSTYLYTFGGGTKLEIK
992000

Now examine the next entry.
Quick one: kon of 10A3D6C109Chum3.2 (antibody, V domains shown, Humanized variant of 10A3D6 made by CDR grafting) VH: QVQLVQSGAEVKKPGASVKVSCKASGYSFTGYTMNWVRQAHGQNLEWIGLINPNTGGTYYNQKFKDRVTLTVDTSISTAYMELSRLRSDDTAVYYCARLGDNYRGYFDCWGQGTTVTVSS VL: DIQLTQSPSFLSASVGDRVTITCKASQDVGTAVVWYQQKPGKAPKLLIDWASIRHTGVPSRFSGSGSGTEFTLTISSLQPEDFADYFCQQYSTYLYTFGGGTKLEIK ?
832000
